The origin of these recorded values is paper PMC5339975.

# Test system: THP-1 cells
# ASSAY SUMMARY: MTT cytotoxicity assay, cancer cells
# Assay type: cell-based
# MEASUREMENT SETUP: Homo sapiens, THP-1, read-out: THP-1 LC50
MEASURE: CC50 (µg/mL)

COC(=O)/C=C(/C)CC[C@]1(C)[C@H]2CCC=C(C(=O)O)[C@]2(C)CC[C@@H]1C :: 49.8
COc1ccc(C[C@H](N)C(=O)N[C@H]2[C@@H](O)[C@H](n3cnc4c(N(C)C)ncnc43)O[C@@H]2CO)cc1 [Puromycin, reference compound] :: 0.4

---

# System: Bacillus cereus ATCC 14579
Rule: measured MIC below 20 µg/mL gets yes; anything equal to or greater than 20 µg/mL gets no.

COC(=O)c1cc(O)c(O)c(O)c1 [Compound 6, methyl gallate] :: no
C[C@H]1[C@H](C)CC[C@]2(C(=O)O)CC[C@]3(C)C(=CC[C@@H]4[C@@]5(C)CC[C@H](O)C(C)(C)[C@@H]5CC[C@]43C)[C@H]12 [Compound 1, ursolic acid] :: yes
CNC(C)C1CCC(N)C(OC2C(N)CC(N)C(OC3OCC(C)(O)C(NC)C3O)C2O)O1 (centres unmarked) [Gentamicin, reference compound] :: yes
COC(=O)/C=C(/C)CC[C@]1(C)[C@H]2CCC=C(C(=O)O)[C@]2(C)CC[C@@H]1C [Compound 4, (8S)-kolavic acid 15-methyl ester] :: no
C[C@@H]1CC[C@@]2(C)C(C(=O)O)=CCC[C@@H]2[C@@]1(C)CC(=O)O [Compound 5] :: no
O=C(CCCCCCCCCCCCCCCCCCCCCCCCC(=O)OC[C@@H](O)CO)OC[C@@H](O)CO [Compound 8] :: no
C[C@@H]1O[C@@H](Oc2c(-c3ccc(O)c(O)c3)oc3cc(O)cc(O)c3c2=O)[C@H](O)[C@H](O)[C@H]1O [Compound 2, quercetin-3-O-α-L-rhamnoside] :: yes
COc1c(O)c(O)cc2c1COc1c-2oc2cc(O)cc(O)c2c1=O [Compound 7, entadanin] :: no
